Cited source for all entries: ChEMBL document CHEMBL5512607

- tested.system: UniProt:P40337
- assay.info: Inhibition of NanoLuc-fused VHL (unknown origin) transfected in live HEK293 cells using NanoGlo as substrate incubated for 1 hrs by tracer based NanoBRET assay
- Assay type: cell-based
Reported IC50 is given for each of the following compounds.
readout.type: IC50

INSERT INTO assay_data (item_smiles, meas_value) VALUES
  ('CC(=O)N[C@H](C(=O)N1C[C@H](O)C[C@H]1C(=O)N[C@@H](C)c1ccc(-c2scnc2C)cc1)C(C)(C)C', '0.13 µM'),
  ('CC(=O)N[C@H](C(=O)N1C[C@H](O)C[C@H]1C(=O)N[C@H](C)c1ccc(-c2scnc2C)cc1)C(C)(C)C', '26 µM');

----------
- tested.system: von Hippel-Lindau disease tumor suppressor (Homo sapiens, UniProt P40337)
- Sequence (P40337 whole entry, the tested form may be a part): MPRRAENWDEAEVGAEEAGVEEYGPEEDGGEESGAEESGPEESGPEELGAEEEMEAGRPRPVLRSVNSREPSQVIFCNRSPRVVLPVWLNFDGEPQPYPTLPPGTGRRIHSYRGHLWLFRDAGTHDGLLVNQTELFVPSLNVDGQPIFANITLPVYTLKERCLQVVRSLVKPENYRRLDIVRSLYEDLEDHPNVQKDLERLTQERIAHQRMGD
- assay.info: Inhibition of VHL (unknown origin)
readout.type: IC50 (nM)

INSERT INTO results (item_smiles, tested_system, scale_unit, meas_value) VALUES
  ('Cc1cc(CC(=O)N2C[C@H](O)C[C@H]2C(=O)NCc2cccc(Cl)c2)on1', 'von Hippel-Lindau disease tumor suppressor (Homo sapiens, UniProt P40337)', 'nM', 117);

----------
- tested.system: von Hippel-Lindau disease tumor suppressor (Homo sapiens, UniProt P40337)
- assay.info: Binding affinity to NanoLuc-fused VHL (unknown origin) transfected in live HEK293 cells using NanoGlo as substrate assessed as dissociation constant incubated for 1 hrs by tracer based NanoBRET assay
- Assay type: cell-based
pKd: −log10 of the molar value.
readout.type: pKd

INSERT INTO measurements (item_smiles, meas_value) VALUES
  ('CC(=O)N[C@H](C(=O)N1C[C@H](O)C[C@H]1C(=O)N[C@@H](C)c1ccc(-c2scnc2C)cc1)C(C)(C)C', 7.20);

----------
- tested.system: von Hippel-Lindau disease tumor suppressor (Homo sapiens)
- assay.info: Binding affinity to VHL (unknown origin) assessed as dissociation constant by fluorescence polarization assay
pKd: −log10 of the molar value.
readout.type: pKd

INSERT INTO measurements (item_smiles, readout_type, meas_value) VALUES
  ('Cc1ncsc1-c1ccc([C@H](C)NC(=O)[C@@H]2C[C@@H](O)CN2C(=O)[C@H](NC(=O)C2(C#N)CC2)C(C)(C)C)cc1F', 'pKd', 6.73),
  ('COc1cc(-c2scnc2C)c(F)cc1CNC(=O)[C@@H]1C[C@@H](O)CN1C(=O)[C@H](NC(=O)C1(F)CC1)C(C)(C)C', 'pKd', 6.87),
  ('Cc1cc(-c2scnc2C)ccc1[C@H](C)NC(=O)[C@@H]1C[C@@H](O)CN1C(=O)[C@H](NC(=O)C1(C#N)CC1)C(C)(C)C', 'pKd', 7.07),
  ('COc1cc(-c2scnc2C)cc(OC)c1CNC(=O)[C@@H]1C[C@@H](O)CN1C(=O)[C@H](NC(=O)C1(C#N)CC1)C(C)(C)C', 'pKd', 5.20),
  ('Cc1ncsc1-c1ccc(CNC(=O)[C@@H]2C[C@@H](O)CN2C(=O)[C@H](NC(=O)C2(C#N)CC2)C(C)(C)C)cc1F', 'pKd', 7.01),
  ('Cc1cc(-c2scnc2C)c(C)cc1CNC(=O)[C@@H]1C[C@@H](O)CN1C(=O)[C@H](NC(=O)C1(C#N)CC1)C(C)(C)C', 'pKd', 6.28),
  ('Cc1ncsc1-c1cc2c(cc1F)[C@@H](NC(=O)[C@@H]1C[C@@H](O)CN1C(=O)[C@H](NC(=O)C1(F)CC1)C(C)(C)C)CCCC2', 'pKd', 5.98);
